# method-summary: TIMS collisional cross section (CCS, N2) of the lipid ion; higher = larger ion cross section
# assay-setup: sample type: plasma; ionization mode: positive; one isomer drawn
Overview of recorded TIMS collisional cross section for various compounds
The reply should contain only the number, in Å².

Take a look at these entries with their results.
{"compound": "CCCCCCCCCCCCCCCCCC(=O)OC[C@@H](COC(=O)CCCCCCCCCCCCCC)OC(=O)CCCCCCCCCCCCCCC [TG 15:0_16:0_18:0] (ion (formula + adduct): [C52H100O6+NH4] 1+)", "TIMS collisional cross section, Å²": 317.33}
{"compound": "CCCCC/C=C\\C/C=C\\CCCCCCCC(=O)OC[C@@H](COC(=O)CCCCCCC/C=C\\CCCCCC)OC(=O)CCCCCCC/C=C\\CCCCCCCC [TG 16:1_18:1_18:2] (ion (formula + adduct): [C55H98O6+NH4] 1+)", "TIMS collisional cross section, Å²": 317.4}
{"compound": "CCCCC/C=C\\C/C=C\\C/C=C\\CCCCC(=O)O[C@H](COC(=O)CCCCCCC/C=C\\C/C=C\\CCCCC)COP(=O)([O-])OCC[N+](C)(C)C [PC 18:2_18:3] (ion (formula + adduct): [C44H78NO8P+H] 1+)", "TIMS collisional cross section, Å²": 283.6}
{"compound": "CCCCCCCCCCCCCCCCCC(=O)OC[C@@H](O)COP(=O)(O)O[C@H]1C(O)C(O)C(O)[C@@H](O)C1O (stereo partly drawn) [LPI 18:0] (ion (formula + adduct): [C27H53O12P+H] 1+)", "TIMS collisional cross section, Å²": 248.8}

# lookup: TIMS collisional cross section of CCCCCCCC/C=C\CCCCCCCC(=O)O[C@H](CO/C=C\CCCCCCCCCCCCCCCC)COP(=O)(O)OCCN [PE P- 18:0@_18:1] (ion (formula + adduct): [C41H80NO7P+H] 1+) 281.4

Next record, please: CC/C=C\C/C=C\C/C=C\C/C=C\C/C=C\CCCC(=O)O[C@H](COC(=O)CCCCCCC/C=C\C/C=C\CCCCC)COP(=O)([O-])OCC[N+](C)(C)C [PC 18:2@_20:5] (ion (formula + adduct): [C46H78NO8P+H] 1+) 287
